Assignment: determine reported IC50 for the given molecules.
# Subject of test: HCV polymerase (NS5B570n-Con1) (Hepatitis C virus genotype 1b)
# Construct: contains a 21 amino acid deletion at the C-terminus relative to the full-length HCV polymerase; 6-histidine (N); made in house; host or cells: E. coli BL21 (DE) pLysS
# Assay text: HCV NS5B RNA polymerase activity assay
# Assay type: biochemical, HCV Con1 strain
# Experimental conditions: IC50 NS5B polymerase assay, Table I
Numbers only, in nM.

| Molecule | Subject of test | Recorded number |
| --- | --- | --- |
| CNC(=O)c1c(-c2ccc(Oc3ccc(F)cc3)cc2)oc2cc(N(C3CCN(S(C)(=O)=O)C3)S(C)(=O)=O)c(C3CC3)cc12 (stereo not shown) [Compound I-94] | HCV polymerase (NS5B570n-Con1) (Hepatitis C virus genotype 1b) | 28 |
| CNC(=O)c1c(-c2ccc(Nc3ccc(C#N)cc3)cc2)oc2cc(N(CCO)S(C)(=O)=O)c(OC)cc12 [Compound I-13] | HCV polymerase (NS5B570n-Con1) (Hepatitis C virus genotype 1b) | 1840 |
| CNC(=O)c1c(-c2ccc(Oc3ccc(F)cc3)cc2)oc2cc(N(CC(C)(C)O)S(C)(=O)=O)c(C3CC3)cc12 [Compound I-78] | HCV polymerase (NS5B570n-Con1) (Hepatitis C virus genotype 1b) | 55 |
| CNC(=O)c1c(-c2ccc(Oc3cccc(Cl)c3)cc2)oc2cc(N(CCO)S(C)(=O)=O)c(OC(C)C)cc12 [Compound I-46] | HCV polymerase (NS5B570n-Con1) (Hepatitis C virus genotype 1b) | 51 |

Batch of 8 molecules: report IC50 for each.
1. CNC(=O)c1c(-c2ccc(Oc3ccc(F)cc3)cc2)oc2cc(N(CCS(C)(=O)=O)S(C)(=O)=O)c(C3CC3)cc12 [Compound I-83]
2. CNC(=O)c1c(-c2ccc(Oc3ccc(F)cc3)nc2)oc2cc(N(CCO)S(C)(=O)=O)c(OC)cc12 [Compound I-125]
3. CNC(=O)c1c(-c2ccc(Nc3ccc(F)c(F)c3)cc2)oc2cc(N(CCO)S(C)(=O)=O)c(OC)cc12 [Compound I-10]
4. CNC(=O)c1c(-c2ccc(Oc3cccc(F)c3)cc2)oc2cc(N(CCO)S(C)(=O)=O)c(OC(C)C)cc12 [Compound I-26]
5. CNC(=O)c1c(-c2ccc(Oc3ccc(F)cc3F)cc2)oc2cc(N(CCO)S(C)(=O)=O)c(C3CC3)cc12 [Compound I-58]
6. CNC(=O)c1c(-c2ccc(Nc3ccc(F)cc3)cc2)oc2cc(N(CCO)S(C)(=O)=O)c(C3CC3)cc12 [Compound I-62]
7. CNC(=O)c1c(-c2ccc(Oc3ccc(F)c(F)c3)cc2)oc2cc(N(CCO)S(C)(=O)=O)c(OC(C)C)cc12 [Compound I-50]
8. CNC(=O)c1c(-c2ccc(Oc3ccc(F)cc3)cc2)oc2cc(N(CCN)C(C)=O)c(OC)cc12 [Compound I-54]

Out:
1: 29; 2: 490; 3: 65; 4: 82; 5: 85; 6: 13; 7: 261; 8: 1240

In: Request the reported IC50 associated with CNC(=O)c1c(-c2ccc(Oc3ccc(F)cc3)cc2)oc2cc(N(CCN)S(C)(=O)=O)c(C3CC3)cc12.Cl [Compound I-74]
Out: 83
